System: NCI-H322M lung
Test: NCI-60 one-dose screen, 48 h (100 = growth as untreated, 0 = no growth, -100 = all killed)
Settings: 10 µM unless noted
Compounds without any hit were thinned out: in the full panel of roughly 83,000, 20% have a hit.
Here the recorded growth is given for each entry.
Measure: growth (%)

# Smiles entry, Assay result
rows = [
    ("CCOC(=O)NC(/C=C/c1ccccc1)NC(=O)OCC", 104),
    ("Nc1cccc2cccc([N+](=O)[O-])c12", 114),
    ("O/N=C1\\c2ccccc2-c2ccc(F)cc21", 92.5),
    ("O=C(CCl)N1c2ccccc2Sc2c1ccc1ccccc21", 106),
]
